Target: T1, human FSTL1 (construct not stated) (human, UniProt Q12841 21-308)
T1 construct: also called human FSTL1 antigen; FSTL1 (R&D Systems, Inc. Cat#1694-FN-050)
T1 sequence: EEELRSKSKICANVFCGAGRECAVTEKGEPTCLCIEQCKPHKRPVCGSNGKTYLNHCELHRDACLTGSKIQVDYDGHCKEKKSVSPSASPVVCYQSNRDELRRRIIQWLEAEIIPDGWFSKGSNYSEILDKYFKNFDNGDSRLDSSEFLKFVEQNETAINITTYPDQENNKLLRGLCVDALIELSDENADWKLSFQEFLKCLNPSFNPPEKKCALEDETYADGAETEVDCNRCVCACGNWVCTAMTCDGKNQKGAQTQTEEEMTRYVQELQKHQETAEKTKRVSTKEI
Test: SPR (Biacore T-200), captured antibody, human FSTL1 10 µg/ml
Field: Binding amount (RU). Provide a value for each of the binders that follow.
API: value field is a number in RU; no unit string.

Item anti-FSTL1 antibody clone #5-2 (chicken-mouse chimeric antibody) (antibody, mouse IgG1, kappa, V domains shown) VH: AVTLDESGGGLQTPGGGLSLVCKGSGFTFSSFNMFWVRQAPGKGLEWVAGVGKDGGTGYGAAVDGRATISKDNGQSTLRLQLNNLRAEDTGTYYCAKAAGGCSYGWCGSYVGDIDAWGHGTEVIVSS VL: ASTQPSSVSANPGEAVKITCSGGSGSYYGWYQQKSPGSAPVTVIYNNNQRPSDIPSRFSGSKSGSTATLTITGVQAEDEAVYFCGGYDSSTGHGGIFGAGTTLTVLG : provide Binding amount (RU)
9.2

Item anti-FSTL1 antibody clone #5-3 (chicken-mouse chimeric antibody) (antibody, mouse IgG1, kappa, V domains shown) VH: AVTLDESGGGLQTPGGALSLVCKGSGFSFSSFNMFWVRQAPGKGLEWVAGIGKDGVPKYGAAVDGRATISKDNGQSTMRLQLNNLRAEDTGTYFCAKAAGGCSYDWCGIYAGDIDTWGHGTEVIVSS VL: ASTQPSSVSANPGETVKITCSGGSGYYYGWYQQKSPGSVPVTVIYNNNNRPSDIPSRFSGSKSGSTGTLTITGVRAEDEAVYYCGGYDNSGTGIFGAGTTLTVLG : provide Binding amount (RU)
11

Item anti-FSTL1 antibody clone #10 (chicken-mouse chimeric antibody) (antibody, mouse IgG1, kappa, V domains shown) VH: AVTLDESGGGLQTPGGALSLVCKASGFFFFRIYDMGWVRQAPGKGLEWVAGIDDYGRYTGYGSAVKGRATISRDNGQSTVRLQLNNLRAEDTGTYYCARGAGTGCNSAGCGAYAGSIDAWGHGTEVIVSS VL: ASTQPSSVSANPGETVKLTCSGGGSRYGWYQQKSPGSAPVTVIYYNDKRPSDIPSRFSGSKSGSTATLTITGVQAEDEAVYFCGGYDGSRDAGIFGAGTTLTVLG : provide Binding amount (RU)
11.7
